Form: system (thrombin (Homo sapiens, UniProt P00734)), quantity (IC50), values below.
Numbered stars: 1 amine (or outer) side, 2 acyl side, 3 side chain; on linkers, the order of the positions; unused ones are H or OH. Square brackets hold non-standard residues; d marks the D form. Peptide text beside a SMILES is read from it. * marks the point of attachment. dCit = NC(=O)NCCC[C@@H](N)C(=O)O; Suc = O=C(CCC(=O)[*:2])[*:1]; Boc = CC(C)(C)OC(=O)*; Aib = CC(C)(N)C(=O)O

N=C(N)NCCC[C@@H](C=O)NC(=O)CNC(=O)[C@@H](CCCNC(=N)N)NC(=O)CCC(=O)O [HOOC(CH2)2 CO--D--Arg--Gly--Arg--H, Succinoyl-D-Arg-Gly-Arg--H] (Suc-[dR]-Gly-Arg-aldehyde): > 100 µM
CC(C)(C)OC(=O)N[C@H](CCCNC(N)=O)C(=O)NCC(=O)N[C@H](C=O)CCCNC(=N)N [Boc--D--Cit--Gly--Arg--H, Boc-D-Cit-Gly-Arg--H] (Boc-[dCit]-Gly-Arg-aldehyde): > 100 µM
N=C(N)NCCC[C@@H](C=O)NC(=O)CNC(=O)[C@@H](CCCNC(=N)N)NC(=O)CC(=O)O: > 100 µM

Recorded IC50 for CC(C)(C)OC(=O)N[C@H](CCCNC(=N)N)C(=O)NC(C)(C)C(=O)N[C@H](C=O)CCCNC(=N)N [Boc--D--Arg--Aib--Arg--H, Boc-D-Arg-Aib-Arg--H] (Boc-[dR]-[Aib]-Arg-aldehyde) , please? > 500 µM

Also `CCOC(=O)N[C@H](CCCNC(=N)N)C(=O)NCC(=O)N[C@H](C=O)CCCNC(=N)N` , if possible. > 100 µM

Also CC(C)(C)OC(=O)N[C@H](CCCCN)C(=O)NCC(=O)N[C@H](C=O)CCCNC(=N)N [Boc--D--Lys--Gly--Arg--H, Boc-D-Lys-Gly-Arg--H] (Boc-[dK]-Gly-Arg-aldehyde) , if possible. > 100 µM
